Documented fraction unbound across a set of molecules
# method: Human plasma protein binding (PPB)
# measurement-conditions: plasma
Simply state the number, no unit and no words.

[[record]]
molecule = "Cc1noc2c(F)c3c(cc12)CC1(C(=O)NC(=O)NC1=O)[C@H]1[C@H](C)O[C@H](C)CN31 [Compound 5]"
experimental_value = 0.094

[[record]]
molecule = "C[C@@H]1CN2c3c(cc4c(N5C(=O)OC[C@@H]5C)noc4c3F)CC3(C(=O)NC(=O)NC3=O)[C@H]2[C@H](C)O1 [ETX0914]"
experimental_value = 0.17


The value of fraction unbound measured for the molecule Cc1nnc(-c2noc3c(F)c4c(cc23)CC2(C(=O)NC(=O)NC2=O)[C@H]2[C@H](C)O[C@H](C)CN42)o1 [Compound 8] turned out to be 0.13

The value of fraction unbound measured for the molecule C[C@@H]1CN2c3c(cc4c(-n5cncn5)noc4c3F)CC3(C(=O)NC(=O)NC3=O)[C@H]2[C@H](C)O1 [Compound 6] turned out to be 0.13

The value of fraction unbound measured for the molecule C[C@@H]1CN2c3c(cc4c(C(=O)NCC(F)(F)F)noc4c3F)CC3(C(=O)NC(=O)NC3=O)[C@H]2[C@H](C)O1 [Compound 7] turned out to be 0.13

* * *

# method: hepatocyte intrinsic clearance
# Assay type: in vitro ADME
# measurement-conditions: male, Han-Wister, rat hepatocytes
measured-attribute: hepatocyte CLint at 1 µM (µL/min/1e6 cells)
Use µL/min/1e6 cells as the unit, but write only the number.

The value of hepatocyte CLint at 1 µM measured for the compound `C[C@@H]1CN2c3c(cc4c(N5C(=O)OC[C@@H]5C)noc4c3F)CC3(C(=O)NC(=O)NC3=O)[C@H]2[C@H](C)O1` turned out to be 10

* * *

# method: Single dose pharmacokinetics, monkey
# Assay type: in vivo
# measurement-conditions: plasma; Cynomologus monkey (male), IV 2.5 mg/kg; read-out: Vss (IV)
measured-attribute: Vd (L/kg)
Use L/kg as the unit, but write only the number.

The value of Vd measured for the molecule `C[C@@H]1CN2c3c(cc4c(N5C(=O)OC[C@@H]5C)noc4c3F)CC3(C(=O)NC(=O)NC3=O)[C@H]2[C@H](C)O1` turned out to be 1.3

* * *

# method: Phase 1 study in healthy volunteers, oral suspension
# Assay type: in vivo, human
# measurement-conditions: both sexes, human, plasma, oral, 3000 mg, with food
measured-attribute: Cmax (ng/mL)
Use ng/mL as the unit, but write only the number.

The value of Cmax measured for the compound `C[C@@H]1CN2c3c(cc4c(N5C(=O)OC[C@@H]5C)noc4c3F)CC3(C(=O)NC(=O)NC3=O)[C@H]2[C@H](C)O1` turned out to be 24000

* * *

# method: comparative haematology analysis in the rat, oral dosing
# measurement-conditions: rat, in vivo, po, 250 mg/kg
measured-attribute: AUC

The value of AUC measured for the compound C[C@@H]1CN2c3c(cc4c(-n5cncn5)noc4c3F)CC3(C(=O)NC(=O)NC3=O)[C@H]2[C@H](C)O1 [Compound 6] turned out to be 1700 µM·h

* * *

# method: 28 day oral toxicology study, rat
# Type: in vivo, Han Wistar rat
# measurement-conditions: both sexes, Han Wistar, plasma; 1 month rat (po), 1000 mg/kg/day; read-out: Cmax (±SD)
measured-attribute: Cmax
Answer as a quantity: numeral, then unit.

The value of Cmax measured for the compound `C[C@@H]1CN2c3c(cc4c(N5C(=O)OC[C@@H]5C)noc4c3F)CC3(C(=O)NC(=O)NC3=O)[C@H]2[C@H](C)O1` turned out to be 260 µg/mL

* * *

# method: 28 day oral toxicology study, dog
# measurement-conditions: both, beagle, dog, plasma, po, 200 mg/kg/day
measured-attribute: Cmax
Answer as a quantity: numeral, then unit.

The value of Cmax measured for the compound `C[C@@H]1CN2c3c(cc4c(N5C(=O)OC[C@@H]5C)noc4c3F)CC3(C(=O)NC(=O)NC3=O)[C@H]2[C@H](C)O1` turned out to be 210 µg/mL

* * *

# method: Phase 1 study in healthy volunteers, oral suspension
# Type: in vivo, human
# measurement-conditions: both sexes, human, plasma, oral, 3000 mg, fasting; read-out: Tmax
# Method: A Phase 1 multipart study[65] in healthy adult volunteers (informed consent with males and females of non-childbearing potential) with ETX0914 was performed under approval of the AstraZeneca Innovative Medicines Safety Review Board and the United States Food and Drug Administration. […] PK parameters were separately determined for the cohorts in each of the Part A and Part B studies. Concentrations of ETX0914 in the plasma and urine were quantified by LC-MS/MS. […]
measured-attribute: Tmax (h)
Use h as the unit, but write only the number.

The value of Tmax measured for the compound `C[C@@H]1CN2c3c(cc4c(N5C(=O)OC[C@@H]5C)noc4c3F)CC3(C(=O)NC(=O)NC3=O)[C@H]2[C@H](C)O1` turned out to be 2.2

* * *

# system: hNav1.5 (Homo sapiens, UniProt Q14524)
# Sequence (Q14524 whole entry): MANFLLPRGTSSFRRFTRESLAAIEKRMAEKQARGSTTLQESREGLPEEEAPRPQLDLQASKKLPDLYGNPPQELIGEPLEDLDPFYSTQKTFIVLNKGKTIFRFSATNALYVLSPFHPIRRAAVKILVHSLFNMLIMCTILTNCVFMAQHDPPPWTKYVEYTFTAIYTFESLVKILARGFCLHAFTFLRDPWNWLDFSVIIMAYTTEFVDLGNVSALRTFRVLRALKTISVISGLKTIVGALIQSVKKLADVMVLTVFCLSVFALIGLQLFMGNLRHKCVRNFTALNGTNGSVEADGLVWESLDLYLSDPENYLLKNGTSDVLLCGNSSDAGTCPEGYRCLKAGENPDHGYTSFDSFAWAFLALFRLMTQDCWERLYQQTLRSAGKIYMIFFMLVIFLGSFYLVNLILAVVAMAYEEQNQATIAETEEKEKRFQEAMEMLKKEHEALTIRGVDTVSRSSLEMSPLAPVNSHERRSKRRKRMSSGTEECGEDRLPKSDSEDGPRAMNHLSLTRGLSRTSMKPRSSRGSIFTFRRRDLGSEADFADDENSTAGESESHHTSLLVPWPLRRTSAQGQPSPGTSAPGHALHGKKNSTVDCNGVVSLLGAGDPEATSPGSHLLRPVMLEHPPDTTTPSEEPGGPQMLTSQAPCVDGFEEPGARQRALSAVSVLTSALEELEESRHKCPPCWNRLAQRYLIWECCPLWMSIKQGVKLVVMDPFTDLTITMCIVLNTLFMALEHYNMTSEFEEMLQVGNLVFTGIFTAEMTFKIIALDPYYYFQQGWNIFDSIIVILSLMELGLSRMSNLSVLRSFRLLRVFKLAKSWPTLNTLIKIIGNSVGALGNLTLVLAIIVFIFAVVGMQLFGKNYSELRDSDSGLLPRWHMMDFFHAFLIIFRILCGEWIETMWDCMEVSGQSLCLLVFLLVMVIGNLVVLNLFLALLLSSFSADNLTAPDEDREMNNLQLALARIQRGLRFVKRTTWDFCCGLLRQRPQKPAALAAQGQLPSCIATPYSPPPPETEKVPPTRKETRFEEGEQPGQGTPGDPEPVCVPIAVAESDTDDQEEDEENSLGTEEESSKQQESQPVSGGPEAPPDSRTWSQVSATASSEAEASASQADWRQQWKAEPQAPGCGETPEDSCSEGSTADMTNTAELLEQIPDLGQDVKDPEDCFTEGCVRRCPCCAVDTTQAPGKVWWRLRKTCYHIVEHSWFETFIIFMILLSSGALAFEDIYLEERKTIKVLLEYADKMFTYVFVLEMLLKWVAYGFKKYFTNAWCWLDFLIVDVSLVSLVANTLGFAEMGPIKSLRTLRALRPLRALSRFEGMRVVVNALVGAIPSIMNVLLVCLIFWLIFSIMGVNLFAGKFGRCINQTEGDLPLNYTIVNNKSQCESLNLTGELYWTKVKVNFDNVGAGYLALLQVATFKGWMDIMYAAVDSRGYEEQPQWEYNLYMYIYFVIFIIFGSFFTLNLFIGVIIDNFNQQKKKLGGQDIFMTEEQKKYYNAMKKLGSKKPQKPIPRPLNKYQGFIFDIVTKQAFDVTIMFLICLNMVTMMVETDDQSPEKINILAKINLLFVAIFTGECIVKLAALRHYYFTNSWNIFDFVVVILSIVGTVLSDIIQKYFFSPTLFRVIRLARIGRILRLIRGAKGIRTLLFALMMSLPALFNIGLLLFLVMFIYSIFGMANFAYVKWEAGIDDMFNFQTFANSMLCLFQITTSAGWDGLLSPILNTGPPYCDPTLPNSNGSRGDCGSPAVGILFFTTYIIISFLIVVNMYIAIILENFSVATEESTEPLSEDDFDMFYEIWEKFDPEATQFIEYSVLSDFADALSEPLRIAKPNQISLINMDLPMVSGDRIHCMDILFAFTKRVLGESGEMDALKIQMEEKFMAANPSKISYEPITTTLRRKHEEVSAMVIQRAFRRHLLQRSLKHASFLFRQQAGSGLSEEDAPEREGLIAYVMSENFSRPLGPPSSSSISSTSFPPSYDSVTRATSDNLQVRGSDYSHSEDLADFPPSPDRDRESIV
# method: In vitro ion channel function
# measurement-conditions: hNav1.5 IC50, Initiation of cardiac action potential/QRS interval
measured-attribute: IC50

[[record]]
molecule = "C[C@@H]1CN2c3c(cc4c(-n5cncn5)noc4c3F)CC3(C(=O)NC(=O)NC3=O)[C@H]2[C@H](C)O1"
experimental_value = "> 333 µM"


The value of IC50 measured for the molecule `C[C@@H]1CN2c3c(cc4c(C(=O)NCC(F)(F)F)noc4c3F)CC3(C(=O)NC(=O)NC3=O)[C@H]2[C@H](C)O1` turned out to be > 100 µM

The value of IC50 measured for the molecule C[C@@H]1CN2c3c(cc4c(N5C(=O)OC[C@@H]5C)noc4c3F)CC3(C(=O)NC(=O)NC3=O)[C@H]2[C@H](C)O1 [ETX0914] turned out to be > 333 µM

The value of IC50 measured for the molecule C[C@@H]1CN2c3c(cc4c(N5C(=O)OC[C@@H]5C)noc4c3F)CC3(C(=O)NC(=O)NC3=O)[C@H]2[C@H](C)O1 [Compound 1] turned out to be > 316 µM

The value of IC50 measured for the molecule `Cc1noc2c(F)c3c(cc12)CC1(C(=O)NC(=O)NC1=O)[C@H]1[C@H](C)O[C@H](C)CN31` turned out to be > 80 µM

* * *

# method: Single dose pharmacokinetics, mouse
# Assay type: in vivo, CD-1 mouse
# measurement-conditions: plasma; CD-1 mouse (female), IV 3 mg/kg; read-out: Clp (IV)
measured-attribute: clearance (mL/min/kg)
Use mL/min/kg as the unit, but write only the number.

The value of clearance measured for the compound `C[C@@H]1CN2c3c(cc4c(N5C(=O)OC[C@@H]5C)noc4c3F)CC3(C(=O)NC(=O)NC3=O)[C@H]2[C@H](C)O1` turned out to be 70

* * *

Documented MIC: N. gonorrhoeae ATCC49226 across a set of compounds
# System: N. gonorrhoeae ATCC49226
# method: MIC (CLSI agar dilution)
# Assay type: cell-based
Answer as a quantity: numeral, then unit.

Recorded MIC: N. gonorrhoeae ATCC49226, per entry:
[[record]]
compound = "C[C@@H]1CN2c3c(cc4c(C(=O)NCC(F)(F)F)noc4c3F)CC3(C(=O)NC(=O)NC3=O)[C@H]2[C@H](C)O1 [Compound 7]"
experimental_value = "0.25 µg/mL"

[[record]]
compound = "C[C@@H]1CN2c3c(cc4c(-n5cncn5)noc4c3F)CC3(C(=O)NC(=O)NC3=O)[C@H]2[C@H](C)O1 [Compound 6]"
experimental_value = "0.25 µg/mL"

[[record]]
compound = "Cc1nnc(-c2noc3c(F)c4c(cc23)CC2(C(=O)NC(=O)NC2=O)[C@H]2[C@H](C)O[C@H](C)CN42)o1 [Compound 8]"
experimental_value = "1 µg/mL"


The value of MIC: N. gonorrhoeae ATCC49226 measured for the compound C[C@@H]1CN2c3c(cc4c(N5C(=O)OC[C@@H]5C)noc4c3F)CC3(C(=O)NC(=O)NC3=O)[C@H]2[C@H](C)O1 [ETX0914] turned out to be 0.125 µg/mL

The value of MIC: N. gonorrhoeae ATCC49226 measured for the compound Cc1noc2c(F)c3c(cc12)CC1(C(=O)NC(=O)NC1=O)[C@H]1[C@H](C)O[C@H](C)CN31 [Compound 5] turned out to be 0.5 µg/mL

* * *

# method: Single dose pharmacokinetics, mouse
# Assay type: in vivo, CD-1 mouse
# measurement-conditions: plasma; CD-1 mouse (female), IV 3 / PO 10 mg/kg
measured-attribute: bioavailability (%)
Use % as the unit, but write only the number.

The value of bioavailability measured for the compound C[C@@H]1CN2c3c(cc4c(N5C(=O)OC[C@@H]5C)noc4c3F)CC3(C(=O)NC(=O)NC3=O)[C@H]2[C@H](C)O1 [ETX0914] turned out to be 46

* * *

# method: 28 day oral toxicology study, rat
# Type: in vivo, Han Wistar rat
# measurement-conditions: both sexes, Han Wistar, plasma; 1 month rat (po), 200 mg/kg/day; read-out: Cmax (±SD)
# Method: The following dosing formulation for rat and dog 28 day PO studies was used: a 100 mg/mL stock of ETX0914 in 5% dextrose and 2.5M meglumine adjusted to pH 9 using 5M HCl or 2.5M meglumine. The dosing formulations were diluted as required with phosphate buffered saline and dispensed daily. […] The following were assessed: clinical observations, body weight, food consumption, body temperature, hematology, plasma chemistry, toxicokinetics and gross and microscopic pathology.
measured-attribute: Cmax (µg/mL)
Use µg/mL as the unit, but write only the number.

The value of Cmax measured for the molecule C[C@@H]1CN2c3c(cc4c(N5C(=O)OC[C@@H]5C)noc4c3F)CC3(C(=O)NC(=O)NC3=O)[C@H]2[C@H](C)O1 [ETX0914] turned out to be 110
